// provenance: the supplement of paper PMC10567573

B1: DLC1 (parent)
chain: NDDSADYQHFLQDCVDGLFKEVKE

variants of: B1; assay: protein stability index of a GFP-peptide fusion (GPS, HEK-293T) (PSI 1-6); higher = more stable; conditions: c terminus: a fixed tail appended;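 note: lentivirally expressed fusions sorted by FACS into six bins by GFP to DsRed ratio, PSI derived from sequencing read proportions per bin multiplied by bin number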
PARAMETER: protein stability index
Answer using only a numeral; do not append any unit.

Recorded protein stability index, per entry:
{"QUERY SEQUENCE": "NDDSADYQHFLQDCVVGLFKEVKE [D16V]", "VALUE MEASURED": 2.99}
{"QUERY SEQUENCE": "NDDSADAQHFLQDCVDGLFKEVKE [Y7A]", "VALUE MEASURED": 3.78}

// fetch protein stability index given entry NDDSADYQHFLQDCVDRLFKEVKE [G17R]
2.01

// fetch protein stability index given entry NDDSADYQHFLQDCVDGLFSEVKE [K20S]
4.74
